Just for reference, patent US20240034761A1 is where these values come from.

# Test system: THP1-Dual monocyte reporter cell line
# Protocol Details: Adjuvant effect of helper molecules on immX3 peptide potency in THP1-Dual assay
# Type: cell-based, human
# Condition Label: immX3 peptide 330 nM plus helper at 2 uM
Endpoint: CD169 (AU)
Write it as a number; the unit AU goes unstated.

input: Request body: readout CD169 (AU), system THP1-Dual monocyte reporter cell line, query C=C(c1ccc(C(=O)O)cc1)c1cc2c(cc1C)C(C)(C)CCC2(C)C . Return the value.
output: 96.9

input: Kindly state the measured CD169 (AU) obtained for C=C1/C(=C\C=C2/CCC[C@]3(C)[C@@H]([C@H](C)CCCC(C)(C)O)CC[C@@H]23)C[C@@H](O)C[C@@H]1O with THP1-Dual monocyte reporter cell line.
output: 102.0

input: Reported CD169 (AU) for THP1-Dual monocyte reporter cell line, given C[C@H]1C[C@H]2[C@@H]3CCC4=CC(=O)C=C[C@]4(C)[C@@]3(F)[C@@H](O)C[C@]2(C)[C@@]1(O)C(=O)CCl ?
output: 98.5

input: Kindly state the measured CD169 (AU) obtained for O=C1CCc2cc(OCCCCc3nnnn3C3CCCCC3)ccc2N1 with THP1-Dual monocyte reporter cell line.
output: 99.4

input: Checklist item: CD169 (AU) tested on THP1-Dual monocyte reporter cell line, entry CN1c2ccccc2N=C(c2ccc(C(=O)O)cc2)c2cc3c(cc21)C(C)(C)CCC3(C)C , value?
output: 110.5

input: API: value(readout= CD169 (AU), system= THP1-Dual monocyte reporter cell line, query= Sc1ncnc2nc[nH]c12 )
output: 104.9

input: Form entry - test system: THP1-Dual monocyte reporter cell line; read-out: CD169 (AU); compound: Oc1ccc(C(c2c[nH]c3ccccc23)c2c[nH]c3ccccc23)cc1
output: 91.0

input: API: value(readout= CD169 (AU), system= THP1-Dual monocyte reporter cell line, query= CN1c2ccc([N+](=O)[O-])cc2N=C(c2ccc(C(=O)O)cc2)c2cc3c(cc21)C(C)(C)CCC3(C)C )
output: 90.4
